Consider the following molecules and their measured IC50 readings.
system tested: N-terminally GST-tagged human full length recombinant Mps-1 kinase (Homo sapiens)
Construct: N-terminally GST-tagged human full length recombinant Mps-1 kinase; purchased Invitrogen, Karslruhe, Germany PV4071
Sequence (P33981 1-857): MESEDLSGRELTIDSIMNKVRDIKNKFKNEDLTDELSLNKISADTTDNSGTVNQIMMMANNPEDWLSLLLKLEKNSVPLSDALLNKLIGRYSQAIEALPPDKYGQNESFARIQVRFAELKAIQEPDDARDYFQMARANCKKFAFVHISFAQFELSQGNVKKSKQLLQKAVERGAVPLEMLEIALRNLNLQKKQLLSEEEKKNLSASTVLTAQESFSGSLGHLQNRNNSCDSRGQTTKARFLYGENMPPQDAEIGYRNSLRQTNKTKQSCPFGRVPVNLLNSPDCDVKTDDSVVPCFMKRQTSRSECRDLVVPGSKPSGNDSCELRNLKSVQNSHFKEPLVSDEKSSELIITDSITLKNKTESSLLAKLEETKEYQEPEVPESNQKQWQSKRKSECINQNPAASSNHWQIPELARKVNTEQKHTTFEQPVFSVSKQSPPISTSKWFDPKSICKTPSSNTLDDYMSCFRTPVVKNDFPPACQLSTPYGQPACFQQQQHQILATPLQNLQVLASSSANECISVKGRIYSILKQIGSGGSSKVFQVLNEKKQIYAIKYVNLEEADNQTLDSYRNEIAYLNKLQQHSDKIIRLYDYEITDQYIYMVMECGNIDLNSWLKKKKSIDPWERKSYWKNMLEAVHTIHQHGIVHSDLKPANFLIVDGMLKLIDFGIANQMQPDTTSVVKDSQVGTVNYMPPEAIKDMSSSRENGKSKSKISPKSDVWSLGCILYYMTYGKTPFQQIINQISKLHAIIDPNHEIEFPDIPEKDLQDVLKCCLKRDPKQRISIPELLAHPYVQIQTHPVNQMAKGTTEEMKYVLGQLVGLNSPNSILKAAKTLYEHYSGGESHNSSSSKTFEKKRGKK
protocol details: Mps-1 kinase assay (TR-FRET)
Assay type: biochemical
experimental setup: Mps1 IC50 [nM], 10 μM ATP, 1 μM peptide substrate, 60 min at 22° C.
value kind: IC50 (nM)

INSERT INTO measurements (molecule, system_tested, readout_units, sign_qualifier, reported) VALUES
  ('Cc1cc(-c2cnc3c(NCCC(F)(F)F)cc(Sc4ccc(C(F)(F)F)cc4)nn23)ccc1C(=O)NC1CC1', 'N-terminally GST-tagged human full length recombinant Mps-1 kinase (Homo sapiens)', 'nM', '=', 1.7),
  ('Cc1cc(-c2cnc3c(NCCC(F)(F)F)cc(-c4ccncc4)nn23)ccc1C(=O)NC1CC1', 'N-terminally GST-tagged human full length recombinant Mps-1 kinase (Homo sapiens)', 'nM', '=', 0.6),
  ('COc1ccccc1Nc1cc(NCC(C)(C)O)c2ncc(-c3ccc(C(=O)NC4CC4)c(C)c3)n2n1', 'N-terminally GST-tagged human full length recombinant Mps-1 kinase (Homo sapiens)', 'nM', '=', 3.4),
  ('COc1cc(C(=O)NC2CC2)ccc1-c1cnc2c(NCC(C)(C)O)cc(-c3ccc(F)cc3)nn12', 'N-terminally GST-tagged human full length recombinant Mps-1 kinase (Homo sapiens)', 'nM', '=', 11.9),
  ('Cc1cc(-c2cnc3c(NCC(C)(C)O)cc(Oc4ccc(F)c(F)c4)nn23)ccc1C(=O)NC1CC1', 'N-terminally GST-tagged human full length recombinant Mps-1 kinase (Homo sapiens)', 'nM', '=', 0.1),
  ('CNC(=O)c1ccc(-c2cnc3c(NCCC(F)(F)F)cc(Oc4cccc(F)c4)nn23)cc1C [Example 551]', 'N-terminally GST-tagged human full length recombinant Mps-1 kinase (Homo sapiens)', 'nM', '=', 0.2),
  ('CSc1cc(NCCC(F)(F)F)c2ncc(-c3ccc(C(=O)NC4CC4)c(C)c3)n2n1', 'N-terminally GST-tagged human full length recombinant Mps-1 kinase (Homo sapiens)', 'nM', '=', 1.4),
  ('Cc1cc(-c2cnc3c(NCC(C)(C)O)cc(Oc4cnn(C)c4)nn23)ccc1C(=O)NC1CC1', 'N-terminally GST-tagged human full length recombinant Mps-1 kinase (Homo sapiens)', 'nM', '=', 0.6),
  ('Cc1cc(-c2cnc3c(NCC(C)(C)O)cc(Sc4nnc[nH]4)nn23)ccc1C(=O)NC1CC1', 'N-terminally GST-tagged human full length recombinant Mps-1 kinase (Homo sapiens)', 'nM', '=', 118),
  ('CC(C)(O)CNc1cc(Oc2ccccc2)nn2c(-c3ccc(C(=S)NC4CC4)cc3)cnc12', 'N-terminally GST-tagged human full length recombinant Mps-1 kinase (Homo sapiens)', 'nM', '=', 0.9),
  ('Cc1cc(-c2cnc3c(NCC(C)(C)O)cc(-c4ccccc4CF)nn23)ccc1C(=O)NC1CC1', 'N-terminally GST-tagged human full length recombinant Mps-1 kinase (Homo sapiens)', 'nM', '=', 2.1),
  ('O=C(NC1CC1)c1ccc(-c2cnc3c(NCc4cccs4)cc(Cl)nn23)cc1Cl', 'N-terminally GST-tagged human full length recombinant Mps-1 kinase (Homo sapiens)', 'nM', '=', 49.8),
  ('Cc1cc(-c2cnc3c(NCCC(F)(F)F)cc(Sc4cccc(F)c4F)nn23)ccc1C(=O)NC1CC1', 'N-terminally GST-tagged human full length recombinant Mps-1 kinase (Homo sapiens)', 'nM', '=', 0.2),
  ('CCNC(=O)c1ccc(-c2cnc3c(NCCC(F)(F)F)cc(Oc4ccc(OC)cc4F)nn23)cc1C', 'N-terminally GST-tagged human full length recombinant Mps-1 kinase (Homo sapiens)', 'nM', '<', 1),
  ('Cc1cc(-c2cnc3c(NCC(C)(C)O)cc(Nc4ccncc4)nn23)ccc1C(=O)NC1CC1', 'N-terminally GST-tagged human full length recombinant Mps-1 kinase (Homo sapiens)', 'nM', '=', 4.4),
  ('CNC(=O)c1ccc(-c2cnc3c(NCCOC)cc(Oc4ccc(OC)cc4F)nn23)cc1C', 'N-terminally GST-tagged human full length recombinant Mps-1 kinase (Homo sapiens)', 'nM', '=', 2.3);
